Please go through the items and note down their Neutralizing activity (%) at 100 µg/ml.
- EXPERIMENTAL_TARGET: Influenza virus A/Suita/1/2009pdm (H1N1 2009 pandemic) (Influenza A virus A/Suita/1/2009pdm (H1N1pdm))
- ASSAY_SUMMARY: cell-based or functional assay
Answers are plain numbers, in %.

• Group 59 representative clone F083-351, Fab-PP-type antibody (Fab, V domains shown) VH: QVQLVQSGADVKKAGSSVKVSCKASGRTFGNYAISWVRQAPGQGLEWMGGITPIFGAANYAQKFQGRVTISADLSTRMVYMDLSSLRSDDTAFYYCAGHPMYHYGSAMDYWGQGTLVTVSS VL: QSVLTQPPSASGTPGQRVSISCFGSRSNVGSSSVNWYQQLPGRAPKLLIQRNDQRPSGVPDRFSGSKSGTSASLAISGLQSDDESTYYCAAWDDSVKSVVFGGGTQLTVLG = 88.5

Next:
Request: Provide only the value of recorded Neutralizing activity (%) at 100 µg/ml for Group 57 representative clone F083-103, Fab-PP-type antibody (Fab, V domains shown) VH: QVQLQQSGADVKKAGSSVKVSCKASGRTFGNYAISWVRQAPGQGLEWMGGITPIFGAANYAQKFQGRVTISADLSTRMVYMDLSSLRSDDTAFYYCAGHPTYHYGSAMDYWGQGTLVTVSS VL: QSVLTQPPSVSAAPGQKVTITCSGSSSNIGNNYVSWYQQLPGTAPKLLISEGSNRPSGIPDRFSGSKSGTSATLGITGLQTGDEATYYCATWDDSLSVVLFGGGTRLTVLS
Response: 60.2
